Task for the reader: assign each of the following molecules its reported pKi.
target: human CB2 receptors (Homo sapiens, UniProt P34972); construct: expressed in transfected cells; host or cells: HEK293; test: human CB2 radioligand binding assay ([3H]CP-55,940 competition)
Sequence (P34972 whole entry): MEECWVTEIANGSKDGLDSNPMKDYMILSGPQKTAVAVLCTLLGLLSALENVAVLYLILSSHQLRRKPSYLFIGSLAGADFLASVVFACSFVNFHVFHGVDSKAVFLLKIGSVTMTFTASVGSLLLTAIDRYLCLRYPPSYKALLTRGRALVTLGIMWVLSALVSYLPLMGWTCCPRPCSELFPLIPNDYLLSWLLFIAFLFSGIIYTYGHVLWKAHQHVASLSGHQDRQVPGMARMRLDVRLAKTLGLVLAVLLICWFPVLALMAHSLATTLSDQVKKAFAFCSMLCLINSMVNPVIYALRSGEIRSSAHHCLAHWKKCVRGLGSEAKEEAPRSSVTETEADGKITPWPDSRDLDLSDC
Formally, pKi is defined as -log10 of the concentration c, with c in mol/L.

Problem: Entry `CCCCc1cn(C(C)(C)C)s/c1=N\C(=O)[C@@]1(C)CC[C@@H](C(=O)OC)C1(C)C` needs its pKi filled in; supply it.
Solution: 8.77

Problem: Give pKi for the following molecule: `COc1ccc(Cl)cc1C(=O)/N=c1\sn(C(C)(C)C)cc1CCCCC#N`
Solution: 8.23

Problem: Please look at this molecule and report its pKi: `COc1ccc(Cl)cc1C(=O)/N=c1\sn(C(C)(C)C)cc1CC1CCCC1`
Solution: 8.72

Problem: Query pKi for `CCCCc1cn(C(C)(C)C)s/c1=N\C(=O)[C@]1(C)CC[C@H](C(=O)N(C)C)C1(C)C`
Solution: 6.80

Problem: Entry `CCCCc1cn(C(C)(C)C)s/c1=N\C(=O)[C@]1(C)CC[C@H](NC(=O)N2CC(F)(F)C2)C1(C)C` needs its pKi filled in; supply it.
Solution: 7.27

Problem: Input `CCCCc1cn(C(C)(C)C)s/c1=N\C(=O)c1cc(C(F)(F)F)ccc1OC[C@@H]1CCCN1C` , output reported pKi.
Solution: 7.34

Problem: Give the measured pKi for `CCCCc1cn(C(C)(C)C)s/c1=N\C(=O)[C@@H]1CC[C@](C)(C(=O)O)C1(C)C`
Solution: 7.68

Problem: Recall and state the measured pKi for `CCCCc1cn(C(C)(C)C)s/c1=N\C(=NC#N)c1cc(C(F)(F)F)ccc1OC` .
Solution: 8.52

###

molecular target: rat CB2 (Rattus norvegicus); assay: rat CB2 cyclase functional assay (HitHunter cAMP, HEK cells); settings: forskolin 18 μM
recorded_endpoint: EC50 (nM)
Answer in nM, number only, no unit symbol.

Problem: Give EC50 for `CCCCc1cn(C(C)(C)CF)s/c1=N\C(=O)c1cc(C(F)(F)F)ccc1OC`
Solution: 0.071

Problem: Quick one: give measured EC50 for `COc1ccc(Cl)cc1C(=O)/N=c1\sn(C(C)(C)C)cc1CCCCC#N`
Solution: 12.8

Problem: Give a short answer stating reported EC50 for `CCCCc1cn(C(C)(C)C)s/c1=N\C(=NC#N)c1cc(C(F)(F)F)ccc1OC` .
Solution: 0.027

Problem: Identify the reported EC50 for the following entry. `CON=CCCc1cn(C(C)(C)C)s/c1=N\C(=O)c1cc(Cl)ccc1OC`
Solution: 1.1

###

Task for the reader: assign each of the following molecules its reported pKi.
molecular target: human CB2 receptors (Homo sapiens); construct: expressed in transfected cells; host or cells: HEK293; experiment: human CB2 radioligand binding assay ([3H]CP-55,940 competition)
Keep it numeric: pKi is minus log10 of the concentration in mol/L.

Problem: Tell me measured pKi for CCCCc1cn(C(C)(C)C)s/c1=N\C(=O)c1cc(C)ccc1OC [Example 43] please.
Solution: 7.74

Problem: Please indicate pKi recorded for CCCCc1cn(C(C)(C)C)s/c1=N\S(=O)(=O)c1cc(Cl)ccc1OC [Example 115]
Solution: 7.28

Problem: Determine from records and report pKi for CCCCc1cn(C(C)(C)C)s/c1=N\C(=O)[C@@]1(C)CC[C@@H](C(=O)O)C1(C)C [Example 174]
Solution: 7.21

Problem: Fill in pKi for record CCOCc1cn(C(C)(C)C)s/c1=N\C(=O)c1cc(Cl)ccc1OC [Example 29]
Solution: 6.74

Problem: Give me measured pKi, please, for this molecule: COc1ccc(Cl)cc1C(=O)/N=c1\sn(C(C)(C)C)cc1CCCC(F)(F)F [Example 142]
Solution: 8.66

Problem: Respond only with pKi recorded for CCCCc1cn(C(C)(C)C)s/c1=N\C(=O)[C@]1(C)CC[C@H](NC(=O)N2CCC2)C1(C)C [Example 263]
Solution: 7.48

Problem: // fetch pKi given entry CCOc1ccc(C(F)(F)F)cc1C(=O)/N=c1\sn(C(C)(C)C)cc1CC(C)C [Example 146]
Solution: 7.62

Problem: In one line, give reported pKi of the entry CCCCc1cn(C(C)(C)C)s/c1=N\C(=O)[C@@]1(C)CC[C@@H](C2=NCCO2)C1(C)C [Example 231] .
Solution: 7.29

###

Please go through the items and note down their Ki.
Molecular target: rat CB2 (Rattus norvegicus)
Sequence (Q9QZN9 1-360): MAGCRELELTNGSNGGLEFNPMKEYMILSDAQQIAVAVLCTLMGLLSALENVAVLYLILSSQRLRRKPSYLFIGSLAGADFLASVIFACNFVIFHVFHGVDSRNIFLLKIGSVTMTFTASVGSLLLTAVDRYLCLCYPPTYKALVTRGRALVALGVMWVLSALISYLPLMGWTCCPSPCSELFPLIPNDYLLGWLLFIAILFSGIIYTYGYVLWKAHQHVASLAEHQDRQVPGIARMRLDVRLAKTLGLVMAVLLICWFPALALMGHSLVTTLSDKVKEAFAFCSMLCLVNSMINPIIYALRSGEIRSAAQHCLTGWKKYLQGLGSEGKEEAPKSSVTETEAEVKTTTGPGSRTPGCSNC
Assay: rat CB2 radioligand binding assay ([3H]CP-55,940 competition)
Parameters: expressed in transfected cells; host or cells: HEK293
Answer in nM, number only, no unit symbol.

Problem: Using the record for `COc1ccc(Cl)cc1C(=O)/N=c1\sn(C(C)(C)C)cc1CCCC(C)(C)F` , state its measured Ki.
Solution: 0.79

Problem: For `CCCCc1cn(C(C)(C)C)s/c1=N\C(=O)[C@@H]1CC[C@](C)(C2=NCCO2)C1(C)C` , write its Ki.
Solution: 20

Problem: Report Ki, nothing else, for this molecule: `CCCCc1cn(C(C)(C)C)s/c1=N\C(=O)C12CC3CC(CC(C3)C1)C2`
Solution: 0.17

Problem: Input `CCCCc1cn(C(C)(C)C)s/c1=N\C(=O)[C@]1(C)CC[C@H](C(=O)NC[C@H]2CCCO2)C1(C)C` , output reported Ki.
Solution: 83

Problem: Output measured Ki for this item: `CCCCc1cn(C(C)(C)C)s/c1=N\C(=O)[C@@H]1CC[C@](C)(NC(N)=O)C1(C)C`
Solution: 38

Problem: Supply measured Ki of `CCCCc1cn(C(C)(C)C(F)(F)F)s/c1=N\C(=O)c1cc(Cl)ccc1OC` in your reply.
Solution: 0.4

Problem: Complete the entry with Ki for `COc1ccc(Cl)cc1C(=O)/N=c1\sn(C(C)(C)C)cc1Cc1ccco1`
Solution: 2.5

Problem: Tell me Ki reported for `CCCCc1cn(C(C)(C)C)s/c1=N\C(=NC#N)c1cc(C(F)(F)F)ccc1OCC`
Solution: 1.2

###

biological target: human CB2 receptors (Homo sapiens); construct: expressed in transfected cells; host or cells: HEK293; assay: human CB2 radioligand binding assay ([3H]CP-55,940 competition)
recorded_endpoint: Ki (nM)
Supply the numeric figure in nM, leaving out any unit text.

Problem: Could you please provide reported Ki for `CC(C)(C)n1cc(CCCC#N)/c(=N/C(=O)c2cc(Cl)ccc2OCC(F)(F)F)s1` ? Thanks!
Solution: 15

Problem: Recall and state the measured Ki for `COc1ccc(C#N)cc1C(=O)/N=c1\sn(C(C)(C)C)cc1Cc1cccs1` .
Solution: 59

Problem: Supply Ki value. Item: `COc1ccc(C(F)(F)F)cc1C(=O)/N=c1\sn(C(C)(C)C)cc1CC(C)C`
Solution: 11

Problem: Check the records and state Ki for COc1ccc(Cl)cc1C(=O)/N=c1\sn(C(C)(C)C)cc1CC1CC(C)=NO1 (stereo not shown)
Solution: 370

###

Please provide measured pEC50 for the entries that follow.
molecular target: rat CB2 (Rattus norvegicus); assay: rat CB2 cyclase functional assay (HitHunter cAMP, HEK cells); conditions: forskolin 18 μM
Keep in mind that pEC50 stands for -log10 of concentration in molar terms.

Problem: Fill in pEC50 for record `CCCCc1cn(C(C)(C)C)s/c1=N\C(=O)[C@]1(C)CC[C@H](C2=NCCO2)C1(C)C`
Solution: 9.80

Problem: Supply reported pEC50 belonging to this compound: `CCCCc1cn(C(C)(C)C)s/c1=N\C(=O)[C@]1(C)CC[C@H](C(=O)NCCO)C1(C)C`
Solution: 8.41

Problem: Consider the compound `CCCCc1cn(C(C)(C)C)s/c1=N\C(=O)c1cc(C(C)(F)F)ccc1OC` . State its measured pEC50.
Solution: 10.37

Problem: Return the recorded pEC50 value; entry: `CCCCc1cn(C(C)(C)C)s/c1=N\C(=O)c1cc(C#N)ccc1OC`
Solution: 9.64

Problem: Give the reported value of pEC50 for this record: CCCCc1cn(C(C)(C)C)s/c1=N\C(=O)C1(C)CCC(C(=O)OC)C1(C)C (racemic)
Solution: 9.35

Problem: Provide measured pEC50 value, entry: `CCCCc1cn(C(C)(C)C)s/c1=N\C(=O)[C@@]1(C)CC[C@@H](C(=O)OCC)C1(C)C`
Solution: 8.96

Problem: Output pEC50 of `CCCCc1cn(C(C)(C)C)s/c1=N\C(=O)C1=CC(=O)CC(C)(C)O1`
Solution: 8.59

Problem: Give the measured pEC50 for `COc1ccc(Cl)cc1C(=O)/N=c1\sn(C(C)(C)C)cc1CCC(C)(C)C#N`
Solution: 8.66
